- TARGET_ENTITY: human A2AAR (Homo sapiens)
- Construct: expressed in transfected cells; host or cells: HeLa
- Sequence (P29274 whole entry): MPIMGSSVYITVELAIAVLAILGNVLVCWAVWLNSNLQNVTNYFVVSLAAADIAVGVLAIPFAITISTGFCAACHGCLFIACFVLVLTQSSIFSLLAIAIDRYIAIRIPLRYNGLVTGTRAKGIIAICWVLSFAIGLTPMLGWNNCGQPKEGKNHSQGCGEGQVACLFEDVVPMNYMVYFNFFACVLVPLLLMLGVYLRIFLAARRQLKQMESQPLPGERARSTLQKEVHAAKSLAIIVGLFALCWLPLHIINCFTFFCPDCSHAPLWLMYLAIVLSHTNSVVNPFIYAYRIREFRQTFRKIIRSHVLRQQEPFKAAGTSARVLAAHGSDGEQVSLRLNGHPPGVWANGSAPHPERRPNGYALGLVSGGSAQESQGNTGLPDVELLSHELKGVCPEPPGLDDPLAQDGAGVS
- ASSAY_PROTOCOL: A2AAR radioligand competition binding, [3H]ZM241385, HeLa cell membranes
- CONDITION_SUMMARY: at 1 μM; read-out: A2A specific binding inhibition percentage
QUANTITY: inhibition at 1 µM (%)

Here are 2 compounds together with their reported answers.
SMILES_REPRESENTATION	TARGET_ENTITY	QUANTITY	MEASURED_VALUE
CCCn1c(=O)c2[nH]c(-c3ccc(OCC(=O)NCC(=O)N4CCN(C(C)(C)C(=O)NCCCOCCOCCOCCCNC(=O)CN(C)C(=O)COc5ccc(C6=[N+]7C(=Cc8ccc(-c9cccs9)n8[B-]7(F)F)C=C6)cc5)CC4)cc3)cc2n(C)c1=O	human A2AAR (Homo sapiens)	inhibition at 1 µM	1
[C-]#[N+]CCCOCCOCCOCCCNC(=O)CN1CCN(C(=O)CNC(=O)COc2ccc(-c3cc4c([nH]3)c(=O)n(CCC)c(=O)n4C)cc2)CC1	human A2AAR (Homo sapiens)	inhibition at 1 µM	13

[A] COc1ccc(-c2cc(NC(=O)COCC(=O)N(C)CC(=O)NCCOCCOCCOCCOCCNC(=O)CN(C)C(=O)CCCOc3ccc(CN4CCN(c5ccccc5OC)CC4)cc3OC)nc(-c3ccc(OC)cc3)n2)cc1
[B] CCCn1c(=O)c2[nH]c(-c3ccc(OCC(=O)NCC(=O)N4CCN(CC(=O)NCCCOCCOCCOCCCNC(=O)CN(C)C(=O)COc5ccc(C6=[N+]7C(=Cc8ccc(-c9cccs9)n8[B-]7(F)F)C=C6)cc5)CC4)cc3)cc2n(C)c1=O
Query: // compare measured inhibition at 1 µM, left A , right B , return larger Indicate your choice by writing its label.
Response: B
(B: 23%, A: 5%)

---

Sequence of the target: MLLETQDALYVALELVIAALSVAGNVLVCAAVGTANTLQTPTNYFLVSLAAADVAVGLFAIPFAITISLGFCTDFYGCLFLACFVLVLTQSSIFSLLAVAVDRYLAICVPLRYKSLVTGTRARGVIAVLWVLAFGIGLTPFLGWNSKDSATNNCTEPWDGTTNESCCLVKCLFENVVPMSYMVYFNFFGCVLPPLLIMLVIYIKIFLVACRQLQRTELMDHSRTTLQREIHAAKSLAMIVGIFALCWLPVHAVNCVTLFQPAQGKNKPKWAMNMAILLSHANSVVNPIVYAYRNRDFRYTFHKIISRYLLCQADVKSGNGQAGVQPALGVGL
QUANTITY: Ki (nM)
// note: answer is a bare numeric in nM

SMILES_REPRESENTATION	MEASURED_VALUE
[C-]#[N+]CCCOCCOCCOCCCNC(=O)CN1CCN(C(=O)CNC(=O)COc2ccc(-c3cc4c([nH]3)c(=O)n(CCC)c(=O)n4C)cc2)CC1	78.6

From here, focus on the item given below.
Query: Look up Ki: CCCn1c(=O)c2[nH]c(-c3ccc(OCC(=O)NCC(=O)N4CCN(C(C)(C)C(=O)NCCCOCCOCCOCCCNC(=O)CN(C)C(=O)COc5ccc(C6=[N+]7C(=Cc8ccc(-c9cccs9)n8[B-]7(F)F)C=C6)cc5)CC4)cc3)cc2n(C)c1=O
Response: 250

---

Record type: pKi measurement. Applies to: human A2AAR (Homo sapiens, UniProt P29274)
Please treat pKi as minus the base-10 logarithm of the molar concentration.

Query: Give pKi (human A2AAR (Homo sapiens, UniProt P29274)) of the following compound: CN(CC(=O)NCCOCCOCCNC(=O)CN(C)C(=O)CC(C)(C)CC(=O)Nc1c(F)cc(C(=O)Nc2nccs2)cc1F)C(=O)CCCCCN1/C(=C/C=C/C=C/C2=[N+](C)c3ccccc3C2(C)C)C(C)(C)c2ccccc21
Response: 6.38

Query: Hi! What's the reported pKi for CN(CC(=O)NCCCOCCOCCOCCCNC(=O)CN(C)C(=O)CC(C)(C)CC(=O)Nc1c(F)cc(C(=O)Nc2nccs2)cc1F)C(=O)CCCCCN1/C(=C/C=C/C=C/C2=[N+](C)c3ccccc3C2(C)C)C(C)(C)c2ccccc21 on human A2AAR (Homo sapiens, UniProt P29274)?
Response: 8.08

---

- TARGET_ENTITY: human A1AR (Homo sapiens, UniProt P30542)
- Construct: expressed in transfected cells; host or cells: CHO
- Sequence (P30542 1-326): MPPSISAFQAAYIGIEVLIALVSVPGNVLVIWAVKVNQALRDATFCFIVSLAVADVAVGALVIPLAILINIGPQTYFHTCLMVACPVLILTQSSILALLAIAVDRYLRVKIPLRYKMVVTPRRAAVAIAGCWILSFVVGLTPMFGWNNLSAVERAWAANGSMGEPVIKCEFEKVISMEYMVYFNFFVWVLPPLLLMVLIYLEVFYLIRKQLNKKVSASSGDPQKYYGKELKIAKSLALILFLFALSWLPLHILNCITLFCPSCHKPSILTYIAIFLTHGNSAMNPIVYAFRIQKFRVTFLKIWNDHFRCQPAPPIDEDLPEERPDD
- ASSAY_PROTOCOL: A1AR radioligand competition binding, [3H]DPCPX, CHO cell membranes
- CONDITION_SUMMARY: at 1 μM; read-out: A1 specific binding inhibition percentage
Recorded inhibition at 1 µM for the following molecules
Just the number in %, nothing appended.

Query: For CN(CC(=O)NCCCOCCOCCOCCCNC(=O)CN(C)C(=O)CC(C)(C)CC(=O)Nc1c(F)cc(C(=O)Nc2nccs2)cc1F)C(=O)CCCCCN1/C(=C/C=C/C=C/C2=[N+](C)c3ccccc3C2(C)C)C(C)(C)c2ccccc21 , what is its reported inhibition at 1 µM?
Response: 31

Query: Could you tell me which inhibition at 1 µM is on file for CCCn1c(=O)c2[nH]c(-c3ccc(OCC(=O)NCC(=O)N4CCN(C(C)(C)C(=O)NCCCOCCOCCOCCCNC(=O)CN(C)C(=O)COc5ccc(C6=[N+]7C(=Cc8ccc(-c9cccs9)n8[B-]7(F)F)C=C6)cc5)CC4)cc3)cc2n(C)c1=O ?
Response: 46

Query: Using the record for CN(CC(=O)NCCOCCOCCNC(=O)CN(C)C(=O)CC(C)(C)CC(=O)Nc1c(F)cc(C(=O)Nc2nccs2)cc1F)C(=O)CCCCCN1/C(=C/C=C/C=C/C2=[N+](C)c3ccccc3C2(C)C)C(C)(C)c2ccccc21 , report its inhibition at 1 µM.
Response: 33

Query: Form field: reported inhibition at 1 µM of COc1ccc(-c2cc(NC(=O)COCC(=O)N(C)CC(=O)NCCOCCOCCOCCOCCNC(=O)CN(C)C(=O)CCCOc3ccc(CN4CCN(c5ccccc5OC)CC4)cc3OC)nc(-c3ccc(OC)cc3)n2)cc1
Response: 8

Where do the numbers come from? From patent US20230271983A1.
